The following compounds are listed with their measured relative cell viability values.
System: HL-1
test.protocol: relative cell viability (CellTiter-Glo) vs DMSO control (% of DMSO control); higher = more viable cells
experimental.setup: oxygen condition: normoxia 72 h; 1000 nM
Counter-ions that a name gives are not always drawn.
Answer with a number only.

# annotated cases, reported relative cell viability shown
compound	relative cell viability
CCCCOc1cc(C(=O)NCCN(CC)CC)c2ccccc2n1 [Dibucaine HCL]	109
CN(C)CCC(c1ccc(Cl)cc1)c1ccccn1 (centres undefined) [Chlorpheniramine Maleate]	105
Clc1ccc2c(c1)C(N1CCNCC1)=Nc1ccccc1O2	111
CNS(=O)(=O)Cc1ccc2[nH]cc(CCN(C)C)c2c1 [Sumatriptan succinate]	108
NS(=O)(=O)c1cc2c(cc1Cl)NC(C(Cl)Cl)NS2(=O)=O (centres undefined) [Trichlormethiazide]	112
N#CC[C@H](C1CCCC1)n1cc(-c2ncnc3[nH]ccc23)cn1	102

// CC(C)c1c(C(=O)Nc2ccccc2)c(-c2ccccc2)c(-c2ccc(F)cc2)n1CC[C@@H](O)C[C@@H](O)CC(=O)O : relative cell viability value = 81.6

// CN1CCN(C2=Nc3cc(Cl)ccc3Nc3ccccc32)CC1 : relative cell viability value = 113

// CC(O)(P(=O)(O)O)P(=O)(O)O [Etidronate] : relative cell viability value = 95.9

---

Tested on: HL-1
test.protocol: relative cell viability (CellTiter-Glo) vs DMSO control (% of DMSO control); higher = more viable cells
experimental.setup: oxygen condition: hypoxia 48 h (1% O2) + reoxygenation 24 h; 200 nM
Structures can show the parent of a compound that is named as a salt.
I'd appreciate it if you marked entries met when relative cell viability is lower than 100 and not met when it is not.

Record excerpt, results attached:
molecule	category
CNC(=C[N+](=O)[O-])NCCSCc1csc(CN(C)C)n1	not met
CC1=C(/C=C/C(C)=C/C=C/C(C)=C/C(=O)O)C(C)(C)CCC1	not met
CC1=C(/C=C/C(C)=C/C=C/C(C)=C/C=C/C=C(C)/C=C/C=C(C)/C=C/C2=C(C)CCCC2(C)C)C(C)(C)CCC1	met
CCCCC[C@H](O)/C=C/[C@H]1[C@H](O)CC(=O)[C@@H]1CCCCCCC(=O)O	not met
O=C(O)c1ccc(NC(=O)[C@H](Cc2ccc(O)cc2)NC(=O)c2ccccc2)cc1 [Bentiromide]	not met
CC12CC3CC(C)(C1)CC(N)(C3)C2 [Memantine HCl]	not met

Strictly below 100: is that where relative cell viability of Cc1onc(-c2ccccc2Cl)c1C(=O)N[C@@H]1C(=O)N2[C@@H]1SC(C)(C)[C@@H]2C(=O)O [Cloxacillin sodium] sits?
not met

Strictly below 100: is that where relative cell viability of CCC[C@@H]1C[C@@H](C(=O)N[C@@H]([C@H]2O[C@H](SC)[C@H](O)[C@@H](O)[C@H]2O)[C@H](C)Cl)N(C)C1 [Clindamycin hydrochloride] sits?
met

Strictly below 100: is that where relative cell viability of COc1ccc([C@H]2CNC(=O)C2)cc1OC1CCCC1 [S-(+)-Rolipram] sits?
met

Strictly below 100: is that where relative cell viability of O=P(O)(O)C(O)(Cc1cccnc1)P(=O)(O)O [Risedronate sodium] sits?
not met

Strictly below 100: is that where relative cell viability of N=C(N)NC(=N)NCCc1ccccc1 [Phenformin hydrochloride] sits?
met
